condition-set: 298.15 K; 101.33 kPa; Liquid; Vibrating tube method
quantity-kind: mass density (kg/m3)
Value expressed in kg/m3; do not type the unit.

Task item: Quick check: mass density of `CCCO` ?
Reply: 799.3

Task item: And then `OCC(F)(F)F` , what is it?
Reply: 1383.41

Task item: And then `CO` , what is it?
Reply: 786.3

Task item: And then `CCO` , what is it?
Reply: 784.83

The reported numbers originate from the NIST ThermoML archive (doi:10.1016/j.tca.2007.04.012).
